meta.source: PubChem BioAssay (NCI)

experiment: NCI Yeast Anticancer Drug Screen. Data for the mlh1 strain (AID 171);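 note: 0% = growth of vehicle-treated control cultures of the same strain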; settings: S. cerevisiae mlh1 strain growth inhibition; at 11.0 µM; active compounds read high
Compounds without any hit were thinned out: in the full panel of roughly 79,000, 15% have a hit.
quantity measured: growth inhibition (%)

# compound, meas value
data = [
    ("COc1ccc(-c2cn(-c3ccc(I)cc3)c3ncnc(N)c23)cc1", -5),
    ("Cc1ccc(CSC(N)=Nc2ccccc2)cc1C", -6),
    ("O=Cc1cccc2ccc3ccccc3c12", -2),
    ("CCCCCCCCCCCCCCCCCCOCC(O)COP(=O)(O)OCC1OC(n2cc(F)c(=O)[nH]c2=O)CC1O (stereo not drawn)", 54),
    ("N#C/C(=C\\c1cccc(OCc2ccccc2)c1)c1ccc([N+](=O)[O-])cc1", -51),
    ("C[CH2][Sn]([CH2]C)([O]C(=O)C(OC(C)=O)c1ccccc1)[O]C(=O)C(OC(C)=O)c1ccccc1 (stereo not drawn)", 4),
    ("CC(=O)[O][Bi]([c]1ccccc1)[c]1ccccc1", 40),
    ("CNC(=O)OCc1c(COC(=O)NC)c(-c2ccc(Cl)c(Cl)c2)n2c1CCC2", -81),
    ("CC(=O)OCC(=O)C1(O)CCC2C3CCC4CCCCC4(C)C3CCC21C (stereo not drawn)", 7),
    ("COc1cc(CC2CC(c3ccc4c(c3)OCO4)OC2=O)cc(OC)c1OC (stereo not drawn)", -1),
    ("CCN(CC)C(C)(C)C(=O)/C=C/c1ccccc1", 3),
    ("Cc1c(C(Cc2ccccc2N(C)C(=O)/C=C\\C(=O)O)c2c[nH]c3ccccc23)c2ccccc2n1C (stereo not drawn)", -7),
    ("O=C(NNc1ccnc2cc(Cl)ccc12)/C(=C\\c1ccccc1Cl)NC(=O)c1ccccc1", 7),
    ("COc1cc(/C=C2\\CCc3ccccc3C2=O)cc(OC)c1OC", -11),
    ("CNC(=O)OCc1c(COC(=O)NC)c(-c2ccc(-c3ccccc3)cc2)n(C)c1C", -11),
    ("CC1OCC2OC(C)OC(C3C4=C(CC(C)(C)CC4=O)OC4=C3C(=O)CC(C)(C)C4)C2O1 (stereo not drawn)", 4),
    ("BrCc1cccc2ccc3cccc(CBr)c3c12", -2),
    ("CC[n+]1ccc2c(C)c3[nH]c4ccc(O)cc4c3c(C)c2c1", -18),
    ("O=C1C=CC(=C(c2ccccc2)c2ccccc2)c2ccccc21", -3),
    ("CCCC/C=C/C(CC)(C(=O)OCC)C(=O)OCC", -5),
    ("O=Nc1c(NO)ccc2nn(-c3ccccc3)nc12", 97),
    ("CC1=NN(c2cccc(Cl)c2)C(=O)C1", -16),
    ("Cc1ccc2[nH]c3c(C)c4cc[n+](C)cc4c(C)c3c2c1", 14),
]

* * *

assay: NCI Yeast Anticancer Drug Screen. Data for the wt1 strain (AID 149);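 note: 0% = growth of vehicle-treated wt1 cultures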; conditions: S. cerevisiae wt1 strain (SPY 50644) growth inhibition; at 3.7 µM; active compounds read high
About 79,000 compounds went through this panel and 15% of them were active in at least one assay; those are over-represented in the sample as a whole.

# molecule, growth inhibition / %
rows = [
    ("O=C1OC(CCl)CN1/N=C/c1ccc([N+](=O)[O-])o1 (stereo not given)", 2),
    ("NC(=O)NN=C(CS)CS", -2),
    ("S=C(Nc1ccc(Cl)cc1)SC1CCCCC1", 0),
    ("COC1=CC(=O)C(C2(OC(C)C)OC(=O)C(Cl)=C2Cl)=CC1=O (stereo not given)", 8),
    ("CNC1C(OC2C(OC3C(O)C(O)C(N=C(N)N)C(O)C3N=C(N)N)OC(C)C2(O)CO)OC(CO)C(O)C1O (stereo not given)", -4),
    ("FC(F)(F)c1cc(NC(=S)N2c3ccccc3-n3cccc3C2c2cccnc2)cc(C(F)(F)F)c1 (stereo not given)", -5),
    ("COc1ccc(Br)c(C(=O)Sc2nnnn2-c2cccc(Cl)c2)c1", 17),
    ("Cn1c2ccccc2c(=O)c2cc(NC(=O)CCCCC(=O)Nc3ccc4c(c3)c(=O)c3ccccc3n4C)ccc21", -4),
    ("CNC(=O)OCc1c(COC(=O)NC)c(-c2ccc(Cl)c(Cl)c2)n2c1CCC2", -56),
    ("CCCCCCCCCCCCCCCCCCOCC(O)COP(=O)(O)OCC1OC(n2cc(F)c(=O)[nH]c2=O)CC1O (stereo not given)", 4),
]

* * *

assay: NCI Yeast Anticancer Drug Screen. Data for the rad50 strain (AID 155);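 note: 0% = growth of vehicle-only cultures of the same strain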; conditions: S. cerevisiae rad50 strain growth inhibition; at 50.0 µM (retest, dose inferred, filed as 5.0); active compounds read high
The panel holds about 79,000 compounds, 15% with a hit somewhere; the sample as a whole holds those more often.
Quick reference for growth inhibition among some compounds

# compound, growth inhibition [%]
data = [
    ("CC1(C)[C@@H]2CC[C@]1(C)[C@H](OC(=O)CSC#N)C2", 98),
    ("CC(C)[N+]([O-])(CCCNc1c2ccccc2nc2cccc([N+](=O)[O-])c12)C(C)C", 97),
    ("COc1ccc(OC)c2cc3ccccc3cc12", 81),
    ("CN(C)C[C@H]1CC[C@@H](CN(C)C)C1=O", 36),
    ("CC(C)OC(=O)Oc1ccccc1OC(=O)OC(C)C", 3),
    ("CCCc1cc(C(=O)OCC)cc(CCC)c1O", 3),
    ("CCNc1nnc(CSc2nc(-c3ccccc3)c(-c3ccccc3)[nH]2)s1", 94),
    ("[N-]=N[N+]#I1OC(C(F)(F)F)(C(F)(F)F)c2ccccc21", 99),
    ("Cc1ccc(N)c(S)c1", 77),
    ("CC(C(=O)N1C(=O)N(C(=O)[C@H](C)C(O)c2ccccc2)[C@H](c2ccccc2)[C@H]1c1ccccc1)[C@@H](O)c1ccccc1 (stereo not given in full)", 39),
    ("CCC(=O)c1cccc2ccccc12", 2),
    ("O=C(N=Nc1cc(Cl)ccc1Cl)NNc1cc(Cl)ccc1Cl", 76),
    ("c1ccc2c(c1)NC(NC1Nc3ccccc3N1)N2", 67),
    ("O=[N+]([O-])c1cccc2nc3ccccc3c(NCCCN3CCOCC3)c12", 97),
    ("Cc1ccc(-n2cc(-c3ccc(Cl)cc3)c(C#N)c2N)cc1", 69),
    ("O=C(c1ccc(Cl)cc1Cl)C(Cl)Cl", 84),
    ("COc1ccc2nc3c([N+](=O)[O-])ccc(NCCN(C)C)c3c(NCCN(C)C)c2c1", 33),
    ("NNc1c(F)c(F)cc(F)c1F", 8),
    ("CC(=O)Cc1ccc[cH-]1.[Fe+2].c1cc[cH-]c1", 8),
    ("O=C1CSC(/C=C/c2ccccc2)N1c1ccc(-c2ccc(-n3c(-c4ccccc4)nc4ccccc4c3=O)cc2)cc1 (stereo not given)", 78),
    ("Cc1nc(-c2ccccc2)c(-c2ccccc2)s1", 100),
    ("O=CNc1ccc2c(c1)C(=O)c1ccccc1-2", 75),
    ("NC(=NCc1ccccc1)N/N=C\\c1ccnc2ccccc12", 46),
    ("CC1CCN(CCC(=O)c2ccc(Cl)cc2)CC1", 36),
    ("N#CN1C2CCC1CC(=O)C2", 99),
]

* * *

Quick reference for growth inhibition among some molecules
assay: NCI Yeast Anticancer Drug Screen. Data for the rad50EPP+ strain (AID 151);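 note: 0% = growth of vehicle-treated control cultures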; details: S. cerevisiae rad50 mutant strain, at 3.7 µM, active compounds read high
The panel holds about 79,000 compounds, 15% with a hit somewhere; the sample as a whole holds those more often. Activity calls are given as the source filed them. No stated cut-off is given here; in the data, active means growth inhibition above about 70%; inactive means the rest.

# molecule, growth inhibition
rows = [
    ("O=C(NCCCNCCCNC(=O)c1cc(-c2ccccc2)nc2ccccc12)c1cc(-c2ccccc2)nc2ccccc12", "5% (inactive)"),
    ("COc1ccc(OC)c2cc3ccccc3cc12", "7% (inactive)"),
    ("O=C1C(=O)c2ccccc2C=C1[N+](=O)[O-]", "-1% (inactive)"),
    ("CCN(CC)CCN1C(=O)c2cccc3cc(OC)cc(c23)C1=O", "37% (inactive)"),
    ("O=C(NC(Nc1ccc(F)c(Cl)c1)(C(F)(F)F)C(F)(F)F)C(C(F)(F)F)C(F)(F)F", "-13% (inactive)"),
    ("COc1cc2c(c(OC)c1OC)-c1c(cc3c(c1OC)OCO3)CC(C)C(C)(O)C2OC(=O)c1ccccc1 (stereo unspecified)", "-19% (inactive)"),
    ("Cc1cc(N=Nc2ccc(S(=O)(=O)[O-])cc2)cc(C(=O)[O-])c1[O-].NC1CCCCC1N.[Na+].[Pt+4]", "95% (active)"),
    ("COc1cc(C2c3cc4c(cc3OC(NNc3ccccc3)C2C)OCO4)cc(OC)c1OC (stereo unspecified)", "42% (inactive)"),
    ("Cc1cc2c(cc1C(=O)CCC(=O)O)CC1(C2)Cc2cc(C)c(C(=O)CCC(=O)O)cc2C1", "0% (inactive)"),
    ("O=C(O)c1ccccc1-c1ccccc1C(=O)Nc1ccc2c(c1)Cc1ccccc1-2", "2% (inactive)"),
    ("OCC(Cn1cncn1)(c1ccc(F)cc1F)n1cncn1 (stereo unspecified)", "28% (inactive)"),
    ("Cc1cc(CO)c(O)c(CNCc2cc(C)cc(CO)c2O)c1", "-23% (inactive)"),
    ("CCc1ccc(NS(=O)(=O)c2ccccc2)c([N+](=O)[O-])c1", "18% (inactive)"),
    ("O=C(O)c1cccc(-c2c3ccc(=O)cc-3oc3cc(O)ccc23)c1", "3% (inactive)"),
    ("O=C(/C=C\\c1ccc(Cl)cc1Cl)c1cccs1", "23% (inactive)"),
    ("BrCc1cccc2ccc3cccc(CBr)c3c12", "0% (inactive)"),
    ("O=[N+]([O-])C(=C(Sc1ccccc1)Sc1ccccc1)C(Cl)=C(Cl)Cl", "20% (inactive)"),
    ("Cc1cc(S(=O)(=O)/N=C(/NN)NNc2cccc(C(F)(F)F)n2)c(S)cc1Cl", "-24% (inactive)"),
    ("CCC/C(Cl)=N\\OC(=O)Nc1ccc(Br)cc1", "31% (inactive)"),
    ("c1ccc(-c2nc3cccnc3s2)cc1", "7% (inactive)"),
    ("O=C(CC(=O)n1nc(-c2ccccc2)c(N=Nc2ccccc2C(=O)O)c1-c1ccccc1)Nc1ccc(Cl)cc1", "6% (inactive)"),
]
